Data origin: patent US9643951B2

Molecular target: human SSTR2 (Homo sapiens, UniProt P30874)
Construct: Myc
Sequence (P30874 whole entry): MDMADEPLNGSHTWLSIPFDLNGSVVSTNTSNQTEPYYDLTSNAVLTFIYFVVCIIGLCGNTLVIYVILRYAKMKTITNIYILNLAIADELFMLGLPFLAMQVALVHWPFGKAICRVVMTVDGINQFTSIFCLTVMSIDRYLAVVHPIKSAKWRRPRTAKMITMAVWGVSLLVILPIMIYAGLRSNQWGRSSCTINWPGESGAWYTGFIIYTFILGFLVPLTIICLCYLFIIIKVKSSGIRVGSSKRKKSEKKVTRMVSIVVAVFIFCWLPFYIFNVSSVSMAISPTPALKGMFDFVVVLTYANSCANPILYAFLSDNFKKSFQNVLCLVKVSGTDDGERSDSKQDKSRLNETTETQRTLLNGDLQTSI
Test: Evaluation of SSTR2 agonistic activity using cells expressing human SSTR2 (suppression of forskolin-stimulated cAMP production, SSTR2-CHO-K1)
EC50 values, listed per item
endpoint_name: EC50 (nM)

compound=CCNC1CCN(c2c(-c3ccc(C(C)(C)C#N)cc3)cncc2-c2cc(Cl)cc(Cl)c2)CC1 experimental_target="human SSTR2 (Homo sapiens, UniProt P30874)" experimental_result=0.021
compound="CO[C@@H]1CN(c2c(-c3ccc(C(F)(F)F)cc3)cncc2-c2cc(Cl)cc(Cl)c2)CC[C@@H]1N (racemic)" experimental_target="human SSTR2 (Homo sapiens, UniProt P30874)" experimental_result=0.17
compound=NC1CCN(c2c(-c3ccc(C(F)(F)F)cc3)cncc2-c2cc(F)cc(Cl)c2)CC1 experimental_target="human SSTR2 (Homo sapiens, UniProt P30874)" experimental_result=0.083
compound=N[C@@H]1CCN(c2c(-c3ccc(C(F)(F)F)cc3)cncc2-c2cc(Cl)cc(Cl)c2)C[C@@H]1O experimental_target="human SSTR2 (Homo sapiens, UniProt P30874)" experimental_result=0.027
compound=CCNC1CCN(c2c(-c3ccc(OC(F)F)cc3)cncc2-c2cc(Cl)cc(Cl)c2)CC1 experimental_target="human SSTR2 (Homo sapiens, UniProt P30874)" experimental_result=0.028
compound=Fc1cccc(/C=C/c2cncc(-c3cc(Cl)cc(Cl)c3)c2N2CC[C@@H]3NCCO[C@H]3C2)c1 experimental_target="human SSTR2 (Homo sapiens, UniProt P30874)" experimental_result=0.097
compound=COc1ccc(F)cc1C(=O)Nc1cncc(-c2cc(Cl)cc(Cl)c2)c1N1CCC(N)CC1 experimental_target="human SSTR2 (Homo sapiens, UniProt P30874)" experimental_result=0.26
compound=CCNC1CCN(c2c(/C=C/c3cccc(C#N)c3)cncc2-c2cc(Cl)cc(Cl)c2)CC1 experimental_target="human SSTR2 (Homo sapiens, UniProt P30874)" experimental_result=0.048
compound=CC(C)(C#N)c1ccc(-c2cncc(-c3cc(Cl)cc(Cl)c3)c2N2CCC(N)CC2)cc1 experimental_target="human SSTR2 (Homo sapiens, UniProt P30874)" experimental_result=0.024
compound=C/C(=C\c1cncc(-c2cc(Cl)cc(Cl)c2)c1N1CCC(N)CC1)c1cccc(C#N)c1 experimental_target="human SSTR2 (Homo sapiens, UniProt P30874)" experimental_result=0.034
compound=N#CC1(c2ccc(-c3cncc(-c4cc(Cl)cc(Cl)c4)c3N3CC[C@@H]4NCCO[C@H]4C3)cc2)CC1 experimental_target="human SSTR2 (Homo sapiens, UniProt P30874)" experimental_result=0.05
compound=N#CC1(c2ccc(-c3cncc(-c4cc(Cl)cc(Cl)c4)c3N3CCC(N)CC3)cc2)CC1 experimental_target="human SSTR2 (Homo sapiens, UniProt P30874)" experimental_result=0.013
compound=CCNC1CCN(c2c(-c3ccc(C(F)(F)F)cc3)cncc2-c2cc(Cl)cc(Cl)c2)CC1 experimental_target="human SSTR2 (Homo sapiens, UniProt P30874)" experimental_result=0.045
compound=N#Cc1cccc(/C=C/c2cncc(-c3cc(Cl)cc(Cl)c3)c2N2CCC(N)CC2)c1 experimental_target="human SSTR2 (Homo sapiens, UniProt P30874)" experimental_result=0.038
compound=CCNC1CCN(c2c(-c3ccc(C4(C#N)CC4)cc3)cncc2-c2cc(Cl)cc(Cl)c2)CC1 experimental_target="human SSTR2 (Homo sapiens, UniProt P30874)" experimental_result=0.036
